Hey, just so you know, these numbers are from patent US20230192717A1.

Molecular target: recombinant 15-PGDH (Homo sapiens)
Sequence (P15428 whole entry): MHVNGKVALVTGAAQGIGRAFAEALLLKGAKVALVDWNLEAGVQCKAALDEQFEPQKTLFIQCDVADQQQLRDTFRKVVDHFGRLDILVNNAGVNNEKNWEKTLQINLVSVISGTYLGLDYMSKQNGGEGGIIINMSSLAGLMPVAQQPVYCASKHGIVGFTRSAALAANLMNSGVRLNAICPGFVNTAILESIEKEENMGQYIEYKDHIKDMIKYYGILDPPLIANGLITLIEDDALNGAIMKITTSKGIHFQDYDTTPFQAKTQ
Experiment: inhibition of enzymatic activity of recombinant 15-PGDH in vitro
Conditions: recombinant human 15-PGDH
pIC50: −log10 of the molar value.
Recorded pIC50 values for a group of compounds are listed next.
observed property: pIC50

{"compound": "COCC[S@@+]([O-])c1sc2nc(-c3ccc4nccnc4c3)cc(C(C)C)c2c1N (stereo in doubt)", "result": "> 8.60"}
{"compound": "COCC[S@@+]([O-])c1sc2nc(-c3cnc4nn(C)cc4c3)cc(C(C)(C)C)c2c1N", "result": "> 8.60"}
{"compound": "Cn1nccc1-c1cc(-c2cnc3ncccc3c2)nc2sc([S@@+]([O-])C3CCC3)c(N)c12 (stereo in doubt)", "result": "< 8.00"}
{"compound": "CC(C)c1cc(-c2cnc(N)nc2)nc2sc([S@+]([O-])C3CCC3)c(N)c12", "result": "> 8.60"}
{"compound": "CC(C)c1cc(-c2cnc(N)nc2)nc2sc([S@@+]([O-])C3CCC3)c(N)c12", "result": "< 8.00"}
{"compound": "COCC[S@@+]([O-])c1sc2nc(-c3cc(=O)n(C)cn3)cc(C(C)C)c2c1N", "result": "> 8.60"}
{"compound": "COCC[S+]([O-])c1sc2nc(-c3cnc4cccnc4c3)cc(-c3ccnn3C)c2c1N (stereo not shown)", "result": "> 8.60"}
